The measured values listed here are drawn from patent US20220119451A1.

Biological target: T1, human PD-L1 on DU-145 cancer cells (human, UniProt Q9NZQ7 19-290)
T1 construct: whole, on cells; Endogenous PD-L1 of a PD-L1-positive human cancer cell line
T1 sequence (Q9NZQ7 19-290): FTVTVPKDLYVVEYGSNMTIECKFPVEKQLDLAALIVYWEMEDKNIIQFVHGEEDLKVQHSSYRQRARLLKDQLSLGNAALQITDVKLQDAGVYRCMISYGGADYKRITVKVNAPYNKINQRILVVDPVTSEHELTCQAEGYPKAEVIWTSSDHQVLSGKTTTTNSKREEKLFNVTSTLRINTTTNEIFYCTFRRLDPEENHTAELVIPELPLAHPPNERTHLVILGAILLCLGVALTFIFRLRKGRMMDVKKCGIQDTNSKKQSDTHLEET
Assay: blocking of PD-1 binding to DU-145 cells
No end group written: not given here.

binder | IC50 [µM]
DYHDPSLPTLRK (not fully specified, 12-mer from phage display) [CLP004 peptide] | 0.2
WHFSYNWRWLPP (not fully specified, 12-mer from phage display) [CLP003 peptide] | 3.05
WHRSYYTWNLNT (not fully specified, 12-mer from phage display) [CLP002 peptide] | 1.43
